The measurements presented in this section are drawn from patent US8802597B2.

Tested on: duck salad (Heteranthera limosa)
protocol_text: Test B flooded paddy test
Type: in vivo
test_conditions: Heteranthera limosa, Flood, 500 g ai/ha; scale 0 to 100; read-out: Plant response rating, Ducksalad
measured_parameter: pest or weed control at 500 g/ha (%)
State just the number; it will be interpreted in %.

Below are worked cases with known answers.
[[record]]
molecule = "Nc1nc(C2CC2)nc(C(=O)OCc2ccccc2)c1Cl [Compound 78]"
measured_parameter = "pest or weed control at 500 g/ha"
measured = 70

[[record]]
molecule = "COC(=O)c1nc(C2CC2)nc(N)c1OC [Compound 59]"
measured_parameter = "pest or weed control at 500 g/ha"
measured = 0

[[record]]
molecule = "CNc1nc(C2CC2)nc(C(=O)OC)c1Cl [Compound 79]"
measured_parameter = "pest or weed control at 500 g/ha"
measured = 70


From here, focus on the item given below.
Request the reported pest or weed control at 500 g/ha associated with Nc1nc(C2CC2)nc(C(=O)[O-])c1Cl.[Na+] [Compound 77, monosodium salt] 80
